molecular target: human NaV 1.8 (Homo sapiens, UniProt Q9Y5Y9); assay: E-VIPR assay detecting and measuring NaV inhibition properties; assay type: cell-based; details: HEK cells expressing truncated human NaV 1.8; no human serum; read-out: IC50 in the E-VIPR Assay
Sequence (Q9Y5Y9 126-399 limits assumed): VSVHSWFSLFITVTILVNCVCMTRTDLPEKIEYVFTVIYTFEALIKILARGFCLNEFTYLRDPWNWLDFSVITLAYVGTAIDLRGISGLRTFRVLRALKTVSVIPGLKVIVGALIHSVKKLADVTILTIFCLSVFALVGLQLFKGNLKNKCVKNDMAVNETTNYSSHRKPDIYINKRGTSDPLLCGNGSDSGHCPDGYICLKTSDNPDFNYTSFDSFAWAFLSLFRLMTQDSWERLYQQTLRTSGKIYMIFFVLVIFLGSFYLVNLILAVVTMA
Sequence (Q9Y5Y9 660-890 limits assumed): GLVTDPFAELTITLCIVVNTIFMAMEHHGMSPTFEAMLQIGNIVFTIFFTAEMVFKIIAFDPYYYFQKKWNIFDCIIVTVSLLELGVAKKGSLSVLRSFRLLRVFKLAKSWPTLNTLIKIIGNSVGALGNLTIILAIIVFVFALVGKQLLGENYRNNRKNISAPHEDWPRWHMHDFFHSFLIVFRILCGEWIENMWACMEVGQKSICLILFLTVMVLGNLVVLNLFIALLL
Sequence (Q9Y5Y9 1148-1722 limits assumed): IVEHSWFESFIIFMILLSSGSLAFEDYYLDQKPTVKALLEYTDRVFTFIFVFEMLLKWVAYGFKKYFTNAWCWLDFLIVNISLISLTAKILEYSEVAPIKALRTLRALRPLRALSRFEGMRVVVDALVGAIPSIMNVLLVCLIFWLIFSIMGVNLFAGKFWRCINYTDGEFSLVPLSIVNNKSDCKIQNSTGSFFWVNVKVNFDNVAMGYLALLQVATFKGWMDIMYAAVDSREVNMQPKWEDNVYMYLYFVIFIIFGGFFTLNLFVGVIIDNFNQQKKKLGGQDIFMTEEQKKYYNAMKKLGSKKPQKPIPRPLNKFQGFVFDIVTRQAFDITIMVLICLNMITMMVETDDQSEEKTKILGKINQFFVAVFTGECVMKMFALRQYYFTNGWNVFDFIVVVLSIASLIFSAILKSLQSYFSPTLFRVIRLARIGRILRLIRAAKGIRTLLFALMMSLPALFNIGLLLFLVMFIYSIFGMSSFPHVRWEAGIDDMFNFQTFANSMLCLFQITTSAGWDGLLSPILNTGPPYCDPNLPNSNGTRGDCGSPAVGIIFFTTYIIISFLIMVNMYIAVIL
pIC50: −log10 of the molar value.
For each record, write down the corresponding pIC50.

Please review the following examples before continuing.
{"columns": ["molecule", "testedTarget", "pIC50"],
 "data": [
  ["COCCOc1cc(NC(=O)[C@@H]2O[C@@](C)(C(F)(F)F)[C@@H](C)[C@H]2c2ccc(F)c(F)c2OCCO)ccn1", "human NaV 1.8 (Homo sapiens, UniProt Q9Y5Y9)", "> 8.00"],
  ["COc1c([C@H]2[C@H](C(=O)NCC3(c4ccccc4)CC3)O[C@@](C)(C(F)(F)F)[C@H]2C)ccc(F)c1F", "human NaV 1.8 (Homo sapiens, UniProt Q9Y5Y9)", "≤ 6.00"],
  ["C[C@H]1[C@@H](c2ccc(F)c(F)c2OCCO)[C@H](C(=O)Nc2ncn(C3CCOC3)n2)O[C@@]1(C)C(F)(F)F (stereo partly drawn)", "human NaV 1.8 (Homo sapiens, UniProt Q9Y5Y9)", "≤ 6.00"],
  ["C[C@H](CO)COc1c([C@H]2[C@H](C(=O)Nc3ccc(C(N)=O)nc3)O[C@@](C)(C(F)(F)F)[C@H]2C)ccc(F)c1F", "human NaV 1.8 (Homo sapiens, UniProt Q9Y5Y9)", "7.00 to 8.00"]
]}

Please give pIC50 for each item listed below.
1. C[C@H]1[C@@H](c2ccc(F)c(F)c2OC(F)F)[C@H](C(=O)Nc2ccnc(C(C)(C)O)c2)O[C@@]1(C)C(F)(F)F (single isomer, unassigned)
2. COc1c([C@H]2[C@H](C(=O)NCC3(C)CCOCC3)O[C@@](C)(C(F)(F)F)[C@H]2C)ccc(F)c1F

## Result
1. > 8.00
2. ≤ 6.00

* * *

biological target: human NaV 1.8 (Homo sapiens, UniProt Q9Y5Y9); assay: E-VIPR assay detecting and measuring NaV inhibition properties; type: cell-based; conditions: HEK cells expressing truncated human NaV 1.8; no human serum; read-out: IC50 in the E-VIPR Assay
pIC50: −log10 of the molar value.
I'd be grateful if you could share measured pIC50 for these entries.

Field: pIC50. Fill in for each record below.
1. C[C@H]1[C@@H](c2ccc(F)c(F)c2OC(F)F)[C@H](C(=O)Nc2ccc(CC(C)(C)O)nc2)O[C@@]1(C)C(F)(F)F (single isomer, unassigned)
2. CNC(=O)COc1c([C@H]2[C@H](C(=O)Nc3cn(C(F)F)nc3C)O[C@@](C)(C(F)(F)F)[C@H]2C)ccc(F)c1F
3. C[C@H]1[C@@H](c2ccc(F)c(F)c2OCC2(F)COC2)[C@H](C(=O)Nc2ccnc(CO)c2)O[C@@]1(C)C(F)(F)F
4. Cc1nn(C(F)F)cc1NC(=O)[C@@H]1O[C@@](C)(C(F)(F)F)[C@@H](C)[C@H]1c1ccc(F)c(F)c1OCC1COC1
5. COc1c([C@H]2[C@H](C(=O)Nc3ccnc(C4(N)COC4)c3)O[C@@](C)(C(F)(F)F)[C@H]2C)ccc(F)c1F
6. COc1c([C@H]2[C@H](C(=O)NC3CCN(C(C)=O)CC3)O[C@@](C)(C(F)(F)F)[C@H]2C)ccc(F)c1F

## Result
6.00 to 7.00
7.00 to 8.00
7.00 to 8.00
> 8.00
> 8.00
≤ 6.00

Origin of values: patent US20240368135A1
